target: Nicotinamide N-methyltransferase (Homo sapiens) (UniProt P40261); assay: Confirmatory Screen for Target Class Profiling of Small Molecule Inhibitors of Methyltransferases (AID 1745852); settings: MTase-Glo luminescence, SAH detection, recombinant enzyme; measured here: NNMT max response; stronger effect = lower value
Sequence (P40261 whole entry, looked up): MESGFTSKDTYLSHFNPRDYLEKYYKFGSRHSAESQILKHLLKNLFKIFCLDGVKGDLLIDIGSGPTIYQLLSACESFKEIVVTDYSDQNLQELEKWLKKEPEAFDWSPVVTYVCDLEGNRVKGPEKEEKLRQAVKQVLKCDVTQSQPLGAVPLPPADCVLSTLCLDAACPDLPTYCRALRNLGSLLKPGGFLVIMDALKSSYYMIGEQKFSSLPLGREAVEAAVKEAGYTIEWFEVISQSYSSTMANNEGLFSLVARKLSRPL
ENDPOINT: activity

// known answers, use as guide
Fc1ccc2[nH]ccc2c1-c1nc(N2CCOCC2)c2sc(CN3CCN(CC4CC4)CC3)cc2n1 ... -62.5%
C/C(=N\N=C(N)N)c1cc(NC(=O)CCCCCCCCC(=O)Nc2cc(/C(C)=N/N=C(N)N)cc(/C(C)=N/N=C(N)N)c2)cc(/C(C)=N/N=C(N)N)c1 ... -74.6%
CCCCCc1ccc(/C=C/C(=O)Nc2cc(Cl)ccc2C(=O)O)cc1 ... -47.8%

Enquiry: Form field: reported activity of CCOC(=O)N1CCC(CN(Cc2ccc(Cl)cc2)Cc2ccc([N+](=O)[O-])s2)C1 (centres undefined)
Return: -5.08%

* * *

experiment: Primary qHTS for inhibitors of nuclear receptor binding SET domain protein 2 (NSD2) in an RCH-ACV wild type WT cells (2C) (AID 1645877); settings: RCH-ACV (leukaemia line) NSD2 WT (2C) viability, CellTiter-Glo, 72 h; series mostly up to 44.9 µM; note: nearly all actives have a fitted effect of over 70% in size
Results filed as inconclusive are left out. Activity calls are given as the source filed them. The call rests on the fitted dose curve; in most records, active means well fitted inhibition curve with a large enough effect; inconclusive means small, poorly fitted or top-dose-only effect; inactive means no such curve, though single readings can be large or run the other way.
Outcomes you can answer with include only these: 1 (yes) for active, 0 (no) for inactive

The examples below pair each entry with its known result.
C=C1C(=O)O[C@@H]2[C@H]1CC[C@H](C)[C@]1(CCC(=O)O1)C2(C)O (stereo partly drawn) ... 1 (yes)
CC[C@@H](Nc1c(Nc2cccc(C(=O)N(C)C)c2O)c(=O)c1=O)c1cc(C(C)C)co1 ... 1 (yes)
COc1ccccc1N1CCN(CC[C@@](C)(C(=O)C2CCCCC2)c2ccccc2)CC1 ... 1 (yes)
O=C(Nc1ccccc1Cl)c1cnc2ccc(C3CCNCC3)cn12 ... 1 (yes)
CC(C)(CO)c1cc2cc(NC(=O)C3(c4ccc5c(c4)OC(F)(F)O5)CC3)c(F)cc2n1CC(O)CO (stereo not drawn) ... 0 (no)
COc1ccc(C2(N(C)C(=O)c3ccc(NC(=O)c4ccco4)cc3)CCOCC2)cc1 ... 0 (no)
FC(F)(F)c1ccccc1-c1cc(C(F)(F)F)c2nc(C3=NOC4(CCCCC4)C3)[nH]c2c1 ... 1 (yes)
C=C[C@]1(C)C[C@H](O)[C@H]2C(=C)C(=O)O[C@@H]2[C@H]1C(=C)CO ... 1 (yes)

Enquiry: Outcome? CC(O)(C(=O)O)C1CCC2(C)C1CCC1(C)C2CCC2C3(C)CCC(O)C(C)(COC4OC(CO)C(O)C(O)C4O)C3CCC21C (stereo not drawn)
Return: 0 (no)

Enquiry: Per the records of this test, what outcome belongs to "N#CC(CCCN1CCN(/N=C/c2cccnc2)CC1)(c1ccccc1)c1ccccc1" ?
Return: 0 (no)

Enquiry: Status in this test for "CN1CCN(Cc2ccc(NC(=O)Cc3ccc(Oc4cc(NC(=O)C5CC5)ncn4)cc3)cc2C(F)(F)F)CC1" ?
Return: 1 (yes)

Enquiry: Entry "O=C(NCC1CCN(Cc2cccc(Cl)c2)CC1)[C@@H]1CCCN(c2ncnc3c2nc2n3CCCC2)C1" : call = ?
Return: 0 (no)

Enquiry: Returns: the outcome recorded for "COCC(=O)NC/C=C/c1ccc2ncnc(Nc3ccc(Oc4ccc(C)nc4)c(C)c3)c2c1" in this assay.
Return: 1 (yes)

Enquiry: State the result this test recorded for "C=C1C(=O)O[C@@H]2C[C@H](C)[C@@H]3CC(=O)C(C)=C3C[C@H]12" .
Return: 1 (yes)

Enquiry: Assay outcome for "C/C1=C\[C@@H](C)C[C@@H](C)[C@@H](Cc2cnco2)OC(=O)/C(C)=C/[C@@H](C)C[C@@H](C)[C@@H](Cc2cnco2)OC1=O" : what was it?
Return: 1 (yes)

Enquiry: Test call, this molecule: C=C1C(=O)OC2/C=C(\COC(C)=O)CC/C=C(\C=O)CC(OC(=O)C(C)CC)C12 (stereo not drawn)
Return: 1 (yes)

Enquiry: Test call for this molecule, please: "C=CC(=O)N1CCN(C(=O)CNc2cc(-c3ccccc3Cl)c(Cl)cc2OC)CC1"
Return: 1 (yes)

Enquiry: Per the records of this test, what outcome belongs to "Cc1cc2c(cc1N1C(=O)c3cccc4c(CCCO)ccc(c34)C1=O)n(C)c(=O)n2C" ?
Return: 1 (yes)

* * *

test system: Tov-21-G; assay: Primary qHTS to identify gynecologic anti-cancer compounds using libraries of approved drugs and bioactive compounds (AID 1345084); settings: Gynecologic cancer cell panel viability, ATPlite luminescence, 48 h; series mostly up to 57.5 µM; note: % is set by controls: 0 for no effect and ±100 for the full control effect; nearly all actives have a fitted effect of over 55% in size
Inconclusive results are not listed. Active and inactive are the calls of the source. The call rests on the fitted dose curve; in most records, active means well fitted cell-killing curve with a large enough effect; inconclusive means small, poorly fitted or top-dose-only effect, or effect the other way; inactive means flat fitted curve, though single readings scatter.
Catalogue of activity change, negative = cytotoxicity readings, one per entry.

COc1c(C)cc(NC(=O)c2nn(Cc3ccc(F)cc3)c3c2CN(C(=O)c2ccc[nH]2)C[C@]3(C)C(N)=O)cc1C ... 11.9% [at 11.6 µM] (inactive)
CC1(C)CCC2(C(=O)OC3OC(COC4OC(CO)C(O)C(O)C4O)C(O)C(O)C3O)CCC3(C)C(=CCC4C5(C)CCC(OC6OCC(O)C(O)C6O)C(C)(C)C5CCC43C)C2C1O (stereo not given) ... 0.233% [at 11.6 µM] (inactive)
N#CSc1cc(SC#N)c(N)nc1N ... -3.87% [at 11.6 µM] (inactive)
C[C@@H]1O[C@@H](O[C@H]2CC[C@@]3(C)C(CC[C@]4(C)C3CC=C3[C@@H]5CC(C)(C)CC[C@]5(C(=O)O[C@@H]5O[C@H](CO)[C@@H](O)[C@H](O)[C@H]5O)CC[C@]34C)[C@]2(C)CO)[C@H](O)[C@H](O[C@@H]2O[C@H](CO)[C@@H](O)[C@H](O)[C@H]2O)[C@H]1O (stereo not given in full) ... -24% [at 11.6 µM] (inactive)

# ---- query molecule ----
Enquiry: What is its activity change, negative = cytotoxicity for Tov-21-G? Entry: CCC(C)C(=O)O[C@H]1[C@H](O)[C@@]2(COC(C)=O)C(CC1(C)C)C1=CCC3[C@@]4(C)CC[C@H](O[C@@H]5O[C@H](C(=O)O)[C@@H](O)[C@H](O)[C@H]5O)[C@@](C)(CO)C4CC[C@@]3(C)[C@]1(C)C[C@@H]2O (stereo not given in full)
Return: 17.2% [at 11.6 µM] (inactive)

* * *

System: Tov112D
Experiment: Primary qHTS to identify gynecologic anti-cancer compounds using libraries of approved drugs and bioactive compounds (AID 1345084); note: % is set by controls: 0 for no effect and ±100 for the full control effect; nearly all actives have a fitted effect of over 55% in size
Conditions: Gynecologic cancer cell panel viability, ATPlite luminescence, 48 h; series mostly up to 57.5 µM
Source text: National Center for Advancing Translational Sciences [NCATS] Assay Overview: Chemotherapeutic drug responses vary from cancer to cancer and from patient to patient. […] ATPlite is a luminescence based assay reliant on the conversion of a luciferase substrate to light in the presence of ATP. As a cytotoxic compound will suppress growth and decrease the number of cells, the concentration of ATP will decrease, and less light signal will be detected in the well. […]
Results filed as inconclusive are left out. Activity calls are given as the source filed them. Calls come from the whole dose curve; as a rule, active = well fitted cell-killing curve with a large enough effect; inconclusive = small, poorly fitted or top-dose-only effect, or effect the other way; inactive = flat fitted curve, though single readings scatter.
Answer with one of the outcomes active, inactive

These solved cases illustrate the format of a correct answer.
COc1ccc(CCCN2CCC(COC(c3ccccc3)c3ccccc3)CC2)cc1 ... inactive
COc1cc(/C=N\NC(=O)c2ccc3c(c2)OCO3)ccc1OCc1ccccc1 ... inactive
CC(=O)OC/C(=C/C(=O)O)CC[C@@H]1C(C=O)=CC[C@@H]2C(C)(C)CCC[C@@]12C ... inactive
Cc1noc(C)c1-c1cc(O)cc(C(O)c2ccccc2)c1 (stereo not given) ... inactive
COc1cc(C2OC(c3ccc(OC)c(OC)c3)C(C)C2C)ccc1O (stereo not given) ... inactive
CC(C)c1ccc(NC(=O)Cn2cnc3c2c(=O)n(C)c(=O)n3C)cc1 ... inactive

Enquiry: So what was the verdict on CCC(C)C(=O)Oc1cc(C)ccc1C1(COC(=O)C(C)C)CO1 (stereo not given) in this test?
Return: inactive

Enquiry: For this molecule, state the assay outcome: "COc1cc(CN(CCN)C(=O)c2cccs2)ccc1OCc1ccccc1"
Return: inactive

Enquiry: Dear all, I need the recorded test outcome for "Nc1nc(O)c(C2=C3C(=Nc4ccccc43)C(=O)NCC2)[nH]1" , thank you.
Return: inactive

Enquiry: Given "COc1cc(C(=O)NCC2(N(C)C)CCCC2)cc(OC)c1OCc1ccccc1" , state the outcome it received in this test.
Return: inactive

Enquiry: GET /call?item= "O=C(NS(=O)(=O)c1ccc(Br)s1)c1ccc(Cl)cc1Cl" returns the recorded outcome of this test.
Return: inactive

Enquiry: Which result was noted for this molecule in the test: C/C=C/C1=CC2=C(CO1)C(=O)C(C)(OC(=O)c1c(C)cc(O)cc1OC)C(O)C2 (stereo not given)
Return: inactive

Enquiry: Recorded call for "C=C1C(=O)O[C@@H]2/C=C(\CO)CC/C=C(/C=O)C[C@H](O)[C@@H]12" ?
Return: inactive

Enquiry: Call for entry CC(C)/C=C1\NC(=O)C(C(C)C)n2c1nc1ccccc1c2=O (stereo not given) :
Return: inactive
